Molecular target: Phosphatidylinositol 4,5-bisphosphate 3-kinase catalytic subunit gamma isoform (Homo sapiens, UniProt P48736)
Sequence (P48736 whole entry, canonical isoform): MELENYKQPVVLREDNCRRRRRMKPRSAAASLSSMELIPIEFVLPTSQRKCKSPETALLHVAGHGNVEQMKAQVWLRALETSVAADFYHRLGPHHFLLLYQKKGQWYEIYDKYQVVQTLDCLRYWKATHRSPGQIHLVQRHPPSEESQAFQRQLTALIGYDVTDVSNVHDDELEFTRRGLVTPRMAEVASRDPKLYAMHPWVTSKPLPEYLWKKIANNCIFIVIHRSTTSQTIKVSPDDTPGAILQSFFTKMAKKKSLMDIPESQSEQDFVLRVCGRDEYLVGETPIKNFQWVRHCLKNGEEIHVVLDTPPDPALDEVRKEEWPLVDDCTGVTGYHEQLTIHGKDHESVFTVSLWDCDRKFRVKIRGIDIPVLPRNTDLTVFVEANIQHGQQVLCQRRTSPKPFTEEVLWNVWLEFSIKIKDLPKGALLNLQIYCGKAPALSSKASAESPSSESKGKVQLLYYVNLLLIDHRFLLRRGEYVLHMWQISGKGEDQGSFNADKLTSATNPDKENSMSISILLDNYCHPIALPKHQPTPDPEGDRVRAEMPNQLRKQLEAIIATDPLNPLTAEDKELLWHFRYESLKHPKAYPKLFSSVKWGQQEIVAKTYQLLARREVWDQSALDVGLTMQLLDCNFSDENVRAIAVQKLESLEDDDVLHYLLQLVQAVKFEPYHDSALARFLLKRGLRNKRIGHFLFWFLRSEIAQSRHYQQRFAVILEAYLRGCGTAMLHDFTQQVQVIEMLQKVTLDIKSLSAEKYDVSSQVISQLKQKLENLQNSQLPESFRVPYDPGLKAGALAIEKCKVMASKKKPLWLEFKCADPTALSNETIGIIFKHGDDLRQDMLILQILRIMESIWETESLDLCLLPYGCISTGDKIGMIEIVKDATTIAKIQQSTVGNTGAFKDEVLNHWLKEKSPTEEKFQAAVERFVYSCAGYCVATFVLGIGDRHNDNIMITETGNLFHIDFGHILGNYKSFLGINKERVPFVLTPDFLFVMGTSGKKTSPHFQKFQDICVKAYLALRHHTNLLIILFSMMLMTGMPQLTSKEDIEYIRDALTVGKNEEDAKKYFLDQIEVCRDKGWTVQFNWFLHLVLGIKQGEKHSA
Assay: Binding affinity to DNA-tagged P13kgamma (unknown origin) assessed as dissociation constant by quantitative PCR analysis
pKd: −log10 of the molar value.
metric: pKd

chemical structure: Nc1cc(C(F)F)c(-c2nc(C3CCOCC3)nc(N3C4CCC3COC4)n2)cn1
value measured: 5.25

====

Target: CYP1A2 (Homo sapiens, UniProt P05177)
Sequence (P05177 whole entry): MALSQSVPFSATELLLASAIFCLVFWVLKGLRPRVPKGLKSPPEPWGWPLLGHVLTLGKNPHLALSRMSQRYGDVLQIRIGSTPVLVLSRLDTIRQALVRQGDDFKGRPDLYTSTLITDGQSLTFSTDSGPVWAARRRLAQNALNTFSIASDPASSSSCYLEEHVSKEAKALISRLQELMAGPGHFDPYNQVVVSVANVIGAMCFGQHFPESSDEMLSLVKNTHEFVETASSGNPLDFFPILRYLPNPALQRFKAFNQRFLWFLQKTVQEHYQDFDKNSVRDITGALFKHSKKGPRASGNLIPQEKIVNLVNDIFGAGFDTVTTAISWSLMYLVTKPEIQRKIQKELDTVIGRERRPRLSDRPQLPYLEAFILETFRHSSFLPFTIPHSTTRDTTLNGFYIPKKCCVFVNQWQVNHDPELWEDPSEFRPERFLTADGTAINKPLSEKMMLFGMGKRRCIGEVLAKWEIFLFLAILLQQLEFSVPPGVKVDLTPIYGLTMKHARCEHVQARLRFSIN
Experiment: Stability of compound assessed as recombinant human CYP1A2-mediated drug metabolism by measuring compound remaining at 1 uM incubated for 60 mins by LC-MS analysis
Type: ADME
Conditions: read-out: Stability

chemical structure: Nc1cc(C(F)F)c(-c2nc(C3CCOCC3)nc(N3C4CCC3COC4)n2)cn1
unit string: %
remaining at 1 h, 1 µM: 84.2
